Cited source: ChEMBL document CHEMBL3826885

# test_system: Adenosine receptor A1 (Rattus norvegicus)
# Sequence (P25099 whole entry): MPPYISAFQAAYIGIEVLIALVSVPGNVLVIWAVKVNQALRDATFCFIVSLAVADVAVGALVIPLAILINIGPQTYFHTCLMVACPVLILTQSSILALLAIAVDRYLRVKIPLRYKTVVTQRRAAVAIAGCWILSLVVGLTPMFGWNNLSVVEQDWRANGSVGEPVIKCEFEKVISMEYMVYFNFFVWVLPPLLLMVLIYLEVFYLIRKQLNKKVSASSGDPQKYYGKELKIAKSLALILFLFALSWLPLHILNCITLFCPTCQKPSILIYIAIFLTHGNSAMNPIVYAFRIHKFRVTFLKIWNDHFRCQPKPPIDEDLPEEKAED
pKi: −log10 of the molar value.

- smiles_repr: "Cn1c(=O)c2c(nc3n2CCN(CCc2ccc(OCCN4CCOCC4)cc2)C3)n(C)c1=O"
  pKi: "< 5.00"
- smiles_repr: "CCCCn1c(=O)c2c(nc3n2CCCN3c2ccc(OCCN3CCCCC3)cc2)n(CCCC)c1=O"
  pKi: 6.90
- smiles_repr: "CCn1c(=O)c2c(nc3n2CCCN3c2ccc(O)cc2)n(CC)c1=O"
  pKi: "< 6.00"

====

# test_system: Adenosine receptor A2a (Rattus norvegicus) (UniProt P30543)
# Sequence (P30543 whole entry): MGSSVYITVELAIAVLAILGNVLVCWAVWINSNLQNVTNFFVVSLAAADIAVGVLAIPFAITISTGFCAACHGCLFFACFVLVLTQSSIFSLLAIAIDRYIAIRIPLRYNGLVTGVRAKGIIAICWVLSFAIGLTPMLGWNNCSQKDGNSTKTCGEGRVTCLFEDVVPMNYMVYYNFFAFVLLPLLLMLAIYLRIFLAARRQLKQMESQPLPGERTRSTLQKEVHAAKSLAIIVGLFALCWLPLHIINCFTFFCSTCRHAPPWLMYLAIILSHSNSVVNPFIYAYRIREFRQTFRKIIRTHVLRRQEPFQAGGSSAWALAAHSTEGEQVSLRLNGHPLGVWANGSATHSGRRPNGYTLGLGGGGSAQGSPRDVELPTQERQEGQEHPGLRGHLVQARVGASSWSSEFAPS
# test_protocol: Displacement of [3H]MSX2 from Adenosine receptor A2a in rat brain striatal membranes at 1 uM
# Format: cell membranes
# condition_set: Membrane
This listing pairs molecules with measured inhibition.
property: inhibition

- smiles_repr: "CCn1c(=O)c2c(nc3n2CCCN3c2ccc(OCCN(C)C)cc2)n(CC)c1=O"
  property: "inhibition"
  result: "27%"
- smiles_repr: "CN(C)CCOc1ccc(N2CCCn3c2nc2c3c(=O)n(C)c(=O)n2C)cc1"
  property: "inhibition"
  result: "3%"
- smiles_repr: "CCCCn1c(=O)c2c(nc3n2CCCN3CCc2ccc(OCCN3CCOCC3)cc2)n(CCCC)c1=O"
  property: "inhibition"
  result: "47%"
- smiles_repr: "CCCn1c(=O)c2c(nc3n2CCCN3CCc2ccc(OCCN(CC)CC)cc2)n(CCC)c1=O"
  property: "inhibition"
  result: "65%"
- smiles_repr: "CCCCn1c(=O)c2c(nc3n2CCCN3CCc2ccc(O)cc2)n(CCCC)c1=O"
  property: "inhibition"
  result: "63%"
- smiles_repr: "Cn1c(=O)c2c(nc3n2CCCN3c2ccc(OCCN3CCCCC3)cc2)n(C)c1=O"
  property: "inhibition"
  result: "-4%"
- smiles_repr: "CCCn1c(=O)c2c(nc3n2CCCN3c2ccc(OCCN(C)C)cc2)n(CCC)c1=O"
  property: "inhibition"
  result: "44%"
- smiles_repr: "CCCn1c(=O)c2c(nc3n2CCCN3CCc2ccc(OCCN3CCOCC3)cc2)n(CCC)c1=O"
  property: "inhibition"
  result: "44%"
- smiles_repr: "Cn1c(=O)c2c(nc3n2CCCN3CCc2ccc(OCCN3CCCC3)cc2)n(C)c1=O"
  property: "inhibition"
  result: "34%"
- smiles_repr: "CCCn1c(=O)c2c(nc3n2CCCN3c2ccc(OCCN(CC)CC)cc2)n(CCC)c1=O"
  property: "inhibition"
  result: "51%"
- smiles_repr: "CCCCn1c(=O)c2c(nc3n2CCCN3c2ccc(OCCN(CC)CC)cc2)n(CCCC)c1=O"
  property: "inhibition"
  result: "49%"
- smiles_repr: "Cn1c(=O)c2c(nc3n2CCCN3c2ccc(OCCN3CCCC3)cc2)n(C)c1=O"
  property: "inhibition"
  result: "13%"
- smiles_repr: "Cn1c(=O)c2c(nc3n2CCCN3CCc2ccc(OCCN3CCCCC3)cc2)n(C)c1=O"
  property: "inhibition"
  result: "65%"
- smiles_repr: "CCCn1c(=O)c2c(nc3n2CCCN3c2ccc(OCCN3CCCC3)cc2)n(CCC)c1=O"
  property: "inhibition"
  result: "28%"
- smiles_repr: "CCCn1c(=O)c2c(nc3n2CCCN3CCc2ccc(O)cc2)n(CCC)c1=O"
  property: "inhibition"
  result: "67%"
- smiles_repr: "CCn1c(=O)c2c(nc3n2CCCN3CCc2ccc(O)cc2)n(CC)c1=O"
  property: "inhibition"
  result: "80%"
- smiles_repr: "CCCCn1c(=O)c2c(nc3n2CCCN3c2ccc(OCCN3CCOCC3)cc2)n(CCCC)c1=O"
  property: "inhibition"
  result: "31%"
- smiles_repr: "CCCn1c(=O)c2c(nc3n2CCCN3c2ccc(O)cc2)n(CCC)c1=O"
  property: "inhibition"
  result: "53%"
- smiles_repr: "CCCCn1c(=O)c2c(nc3n2CCCN3c2ccc(OCCN(C)C)cc2)n(CCCC)c1=O"
  property: "inhibition"
  result: "47%"
- smiles_repr: "Cn1c(=O)c2c(nc3n2CCCN3c2ccc(OCCN3CCOCC3)cc2)n(C)c1=O"
  property: "inhibition"
  result: "14%"
- smiles_repr: "CN(C)CCOc1ccc(CCN2CCCn3c2nc2c3c(=O)n(C)c(=O)n2C)cc1"
  property: "inhibition"
  result: "49%"
- smiles_repr: "CCCCn1c(=O)c2c(nc3n2CCCN3CCc2ccc(OCCN(CC)CC)cc2)n(CCCC)c1=O"
  property: "inhibition"
  result: "64%"
- smiles_repr: "Cn1c(=O)c2c(nc3n2CCCN3CCc2ccc(OCCN3CCOCC3)cc2)n(C)c1=O"
  property: "inhibition"
  result: "71%"
- smiles_repr: "CCn1c(=O)c2c(nc3n2CCCN3c2ccc(O)cc2)n(CC)c1=O"
  property: "inhibition"
  result: "53%"
- smiles_repr: "CCN(CC)CCOc1ccc(CCN2CCCn3c2nc2c3c(=O)n(C)c(=O)n2C)cc1"
  property: "inhibition"
  result: "53%"
- smiles_repr: "CCCCn1c(=O)c2c(nc3n2CCCN3c2ccc(OCCN3CCCCC3)cc2)n(CCCC)c1=O"
  property: "inhibition"
  result: "49%"
- smiles_repr: "CCN(CC)CCOc1ccc(N2CCCn3c2nc2c3c(=O)n(C)c(=O)n2C)cc1"
  property: "inhibition"
  result: "12%"
- smiles_repr: "CCCCn1c(=O)c2c(nc3n2CCCN3c2ccc(OCCN3CCCC3)cc2)n(CCCC)c1=O"
  property: "inhibition"
  result: "49%"
- smiles_repr: "CCn1c(=O)c2c(nc3n2CCCN3CCc2ccc(OCCN3CCOCC3)cc2)n(CC)c1=O"
  property: "inhibition"
  result: "51%"
- smiles_repr: "CCCn1c(=O)c2c(nc3n2CCCN3c2ccc(OCCN3CCOCC3)cc2)n(CCC)c1=O"
  property: "inhibition"
  result: "45%"
- smiles_repr: "CCCCn1c(=O)c2c(nc3n2CCCN3c2ccc(O)cc2)n(CCCC)c1=O"
  property: "inhibition"
  result: "64%"
- smiles_repr: "CCCn1c(=O)c2c(nc3n2CCCN3c2ccc(OCCN3CCCCC3)cc2)n(CCC)c1=O"
  property: "inhibition"
  result: "44%"
